# System: 786-0 complex spheroid viability
# measurement.protocol: Anticancer human tumor 786-0 cell line growth inhibition;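 further: spheroids exposed to agents for seven days before readout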
# experimental.context: second compound 0.316 µM; first compound 0.1 µM; stronger effect = lower value
# Excerpt: Multicellular complex tumor spheroid response to LSD1 Inhibitor Iadademstat in combination with a variety of drugs and investigational agents in selected tumor cell lines The current study was undertaken to assess response to LSD1 inhibitors in combination with standard-of-care drugs and investigational agents in solid tumor complex spheroid models as well as in the K-562 leukemia. […] Compounds. […] If the clinical Cmax for an agent had not been determined, the highest concentration tested was 10 microM. […]
Assign viability, T/C to each entry below.
Give bare numbers, in %.

Examples from the recorded data:
Form field viability, T/C, entry CC1COCCN1c1cc(-c2ccnn2C)c2ccnc(-c3ccn[nH]3)c2n1 (stereo unspecified) + NC1CCC(NC2CC2c2ccccc2)CC1 : 16.2

Form field viability, T/C, entry Nc1ncn(C2CC(O)C(CO)O2)c(=O)n1 (stereo unspecified) + NC1CCC(NC2CC2c2ccccc2)CC1 : 92.2

Form field viability, T/C, entry CC1(C)CCC(CN2CCN(c3ccc(C(=O)NS(=O)(=O)c4ccc(NCC5CCOCC5)c([N+](=O)[O-])c4)c(Oc4cnc5[nH]ccc5c4)c3)CC2)=C(c2ccc(Cl)cc2)C1 + NC1CC1c1ccc(-c2cccc(O)c2)cc1 : 114

Form field viability, T/C, entry CC1COCCN1c1cc(C2(S(C)(=N)=O)CC2)nc(-c2ccnc3[nH]ccc23)n1 (stereo unspecified) + NC1CCC(NC2CC2c2ccccc2)CC1 : 116

Form field viability, T/C, entry CC1(C)CCC(CN2CCN(c3ccc(C(=O)NS(=O)(=O)c4ccc(NCC5CCOCC5)c([N+](=O)[O-])c4)c(Oc4cnc5[nH]ccc5c4)c3)CC2)=C(c2ccc(Cl)cc2)C1 + NC1CCC(NC2CC2c2ccccc2)CC1 : 121

Next:
Form field viability, T/C, entry CC[C@@]1(O)C(=O)OCc2c1cc1n(c2=O)Cc2cc3c(CN(C)C)c(O)ccc3nc2-1 + NC1CCC(NC2CC2c2ccccc2)CC1 : 3.62

---

# Tested on: 786-0 complex spheroid viability
# measurement.protocol: Anticancer human tumor 786-0 cell line growth inhibition; active means viability on the fitted dose curve at most 10% of control; inactive means the rest;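 further: spheroids exposed to agents for seven days before readout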
# experimental.context: second compound 3.16 µM; first compound 0.1 µM
Give your call using only these classes: Y for active, N for inactive

Q: Call for entry Nc1ncn(C2CC(O)C(CO)O2)c(=O)n1 (stereo not drawn) + NC1CC1c1ccc(-c2cccc(O)c2)cc1 :
A: N

Q: Call for entry COc1cc(Nc2ncc3c(n2)-c2ccc(Cl)cc2C(c2c(F)cccc2OC)=NC3)ccc1C(=O)O + NC1CC1c1ccc(-c2cccc(O)c2)cc1 :
A: N

Q: Call for entry O=C(c1cc(Cc2n[nH]c(=O)c3ccccc23)ccc1F)N1CCN(C(=O)C2CC2)CC1 + NC1CC1c1ccc(-c2cccc(O)c2)cc1 :
A: N

Q: Call for entry CC(C)CC(NC(=O)C(Cc1ccccc1)NC(=O)c1cnccn1)B(O)O (stereo not drawn) + NC1CC1c1ccc(-c2cccc(O)c2)cc1 :
A: Y

Q: Call for entry CC1(C)CCC(CN2CCN(c3ccc(C(=O)NS(=O)(=O)c4ccc(NCC5CCOCC5)c([N+](=O)[O-])c4)c(Oc4cnc5[nH]ccc5c4)c3)CC2)=C(c2ccc(Cl)cc2)C1 + NC1CC1c1ccc(-c2cccc(O)c2)cc1 :
A: N

Next:
Q: Call for entry CC1COCCN1c1cc(-c2ccnn2C)c2ccnc(-c3ccn[nH]3)c2n1 (stereo not drawn) + NC1CC1c1ccc(-c2cccc(O)c2)cc1 :
A: N

Q: Call for entry Nc1ncn(C2CC(O)C(CO)O2)c(=O)n1 (stereo not drawn) + NC1CCC(NC2CC2c2ccccc2)CC1 :
A: N

Q: Call for entry Cn1ncnc1C1c2n[nH]c(=O)c3cc(F)cc(c23)NC1c1ccc(F)cc1 (stereo not drawn) + NC1CCC(NC2CC2c2ccccc2)CC1 :
A: N
